- Test system: Mus musculus
- methodNotes: Effective dose required for muscle relaxation by oral administration in mouse using Straub-tail (ST) assay.
- Assay type: functional
measurementType: ED50 (mg/kg)
# value in mg/kg; strip the unit string

Sample records with ED50:
- CC(C)NC(=O)/C=C1\CCc2ccc(F)cc21: 96
- O=C(/C=C1\CCc2cc(F)ccc21)NC1CC1: 81
- CC(C)NC(=O)/C=C1\CCc2c(F)cc(F)cc21: 50
- NC(=O)/C=C1\CCc2c1ccc(F)c2F: 45

Form field: ED50 recorded for NC(=O)/C=C1\CCc2ccc(Br)cc21 with Mus musculus (enter value) 96

Form field - read-out: ED50; system: Mus musculus; submitted item: CNC(=O)/C=C1\CCc2c(F)cc(F)cc21 45

I'm curious: which ED50 was measured for O=C(/C=C1\CCc2c(F)cccc21)NC1CC1 tested on Mus musculus? 126

Lab note: need ED50 with Mus musculus for entry O=C(/C=C1\CCc2ccc(F)cc21)N1CCOCC1 , please look it up. 90

Requested read-out ED50, target or system Mus musculus, entry C/C(=C\C(=O)NC1CC1)c1cccc(F)c1 122

Please tell me: ED50 of NC(=O)/C=C1\CCc2c(F)cc(F)cc21 , system Mus musculus? 69

Test system Mus musculus; read-out ED50; what value for NC(=O)/C=C1/CCc2ccc(F)cc21 ? 64

Give Mus musculus ED50 for CN(C)C(=O)/C=C1\CCc2c(F)cc(F)cc21 50

Quick check: ED50 on Mus musculus, item Cc1cccc2c1CC/C2=C\C(=O)NC1CC1 ? 40

For the record Cc1cccc2c1/C(=C/C(N)=O)CC2 , what value of ED50 is listed for Mus musculus? 82

Lab note: need ED50 with Mus musculus for entry NC(=O)/C=C1\CCc2cc(F)cc(F)c21 , please look it up. 44

Find the measured ED50: item NC(=O)/C=C1\CCc2cc(F)c(F)cc21 , target or system Mus musculus. 64

Which measured ED50 belongs to CCN(C)C(=O)/C=C1\CCc2ccc(F)cc21 , tested on Mus musculus? 100

Lab note: need ED50 for CCNC(=O)/C=C1\CCc2ccc(F)cc21 on Mus musculus, anyone have it? 70

Requested read-out ED50, target or system Mus musculus, entry NC(=O)/C=C1\CCc2ccccc21 108

Entry O=C(/C=C1\CCc2cc(F)cc(F)c21)NC1CC1 , system Mus musculus: what ED50 was measured? 69

Item: NC(=O)/C=C1\CCc2ccc(F)cc21 Test system: Mus musculus Read-out: ED50 Value: ? 56

Report ED50 for NC(=O)/C=C1\CCc2c(F)ccc(F)c21 tested on Mus musculus. 56

Which ED50 is reported with Mus musculus for this entry: O=C(/C=C1\CCc2c(F)cc(F)cc21)NCCO ? 100
